Biological target: UniProt P9WJV5
Test: Surface Plasmon Resonance binding to immobilized MmpL3tb
Conditions: SPR global fit
OUTCOME MEASURE: kd2
The number alone won't do; follow it with the unit.

MOLECULE	kd2
CC(C)=CCC/C(C)=C/CNCCNC1C2CC3CC(C2)CC1C3 (stereo not shown) [SQ109]	0.0436 s⁻¹
CN(C)c1ccc2c(-c3ccc(C(=O)NCCCCCCn4cc(COc5ccc6[nH]c(C(=O)NC7CCCCCCC7)cc6c5)nn4)cc3C(=O)O)c3ccc(=[N+](C)C)cc-3oc2c1 [Compound 1]	0.0273 s⁻¹

kd2 for Cc1c(CN2CCN(C)CC2)cc(-c2ccc(Cl)cc2)n1-c1ccc(Cl)cc1 [BM212] is 0.0222 s⁻¹

kd2 for C[C@@H]1C(NC(=O)c2cc3cc(OCc4cn(CCCCCCNC(=O)c5ccc(-c6c7ccc(=[N+](C)C)cc-7oc7cc(N(C)C)ccc67)c(C(=O)O)c5)nn4)ccc3[nH]2)C[C@H]2C[C@@H]1C2(C)C (stereo partly shown) [Compound 2] is 0.1556 s⁻¹

---

System: MsmgΔmmpL3 expressing mmpL3tb V684A
Assay type: cell-based, Mycobacterium smegmatis
Marks after values point to notes of the source that are not given here.
OUTCOME MEASURE: MIC

MOLECULE	RESULT
O=C(O)c1cn(C2CC2)c2cc(N3CCNCC3)c(F)cc2c1=O	0.31 µg/mL

MIC for CN(C)c1ccc2c(-c3ccc(C(=O)NCCCCCCn4cc(COc5ccc6[nH]c(C(=O)NC7CCCCCCC7)cc6c5)nn4)cc3C(=O)O)c3ccc(=[N+](C)C)cc-3oc2c1 is >32^b μg/mL

MIC for C[C@@H]1C(NC(=O)c2cc3cc(OCc4cn(CCCCCCNC(=O)c5ccc(-c6c7ccc(=[N+](C)C)cc-7oc7cc(N(C)C)ccc67)c(C(=O)O)c5)nn4)ccc3[nH]2)C[C@H]2C[C@@H]1C2(C)C (some centres unmarked) is 4 µg/mL

MIC for C[C@@H]1[C@H]2C[C@@H](C[C@H]1NC(=O)c1cc3ccccc3[nH]1)C2(C)C is 0.32 µg/mL

MIC for Cc1cc(C)c2cc(C(=O)NC3CCCCCCC3)[nH]c2c1 is 0.05 µg/mL

---

Biological target: purified MmpL3tb protein (Mycobacterium tuberculosis, UniProt P9WJV5)
Sequence (P9WJV5 whole entry): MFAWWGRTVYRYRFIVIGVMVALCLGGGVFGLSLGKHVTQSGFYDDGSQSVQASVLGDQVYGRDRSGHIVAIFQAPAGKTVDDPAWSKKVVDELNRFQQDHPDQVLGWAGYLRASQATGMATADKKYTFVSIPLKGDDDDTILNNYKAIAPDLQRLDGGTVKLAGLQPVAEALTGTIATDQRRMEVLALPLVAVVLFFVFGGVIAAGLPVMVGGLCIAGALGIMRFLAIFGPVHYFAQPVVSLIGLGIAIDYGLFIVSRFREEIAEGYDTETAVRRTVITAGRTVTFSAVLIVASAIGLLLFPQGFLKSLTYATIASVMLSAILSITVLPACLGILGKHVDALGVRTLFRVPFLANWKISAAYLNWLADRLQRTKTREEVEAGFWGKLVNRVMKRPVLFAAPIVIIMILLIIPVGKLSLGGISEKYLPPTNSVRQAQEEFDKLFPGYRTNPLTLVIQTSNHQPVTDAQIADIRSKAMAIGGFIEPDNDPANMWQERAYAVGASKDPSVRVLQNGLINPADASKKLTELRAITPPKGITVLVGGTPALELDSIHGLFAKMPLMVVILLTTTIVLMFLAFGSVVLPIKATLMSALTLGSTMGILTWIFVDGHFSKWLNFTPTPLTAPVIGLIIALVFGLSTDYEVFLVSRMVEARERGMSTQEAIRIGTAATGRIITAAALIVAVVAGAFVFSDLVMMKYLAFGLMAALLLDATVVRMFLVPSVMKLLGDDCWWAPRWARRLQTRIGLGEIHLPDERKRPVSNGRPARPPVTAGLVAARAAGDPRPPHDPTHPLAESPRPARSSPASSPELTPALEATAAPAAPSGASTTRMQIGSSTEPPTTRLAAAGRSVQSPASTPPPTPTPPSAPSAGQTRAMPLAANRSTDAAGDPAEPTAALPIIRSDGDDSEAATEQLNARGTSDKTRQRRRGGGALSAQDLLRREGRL
Assay: Surface Plasmon Resonance binding to immobilized MmpL3tb
Details: equilibrium dissociation constant calculated from the rate constants; read-out: KD1
OUTCOME MEASURE: pKd
# log scale: pKd equals minus log10 of the concentration in mol/L

Study these solved cases before continuing.
COMPOUND	pKd
C[C@@H]1C(NC(=O)c2cc3cc(OCc4cn(CCCCCCNC(=O)c5ccc(-c6c7ccc(=[N+](C)C)cc-7oc7cc(N(C)C)ccc67)c(C(=O)O)c5)nn4)ccc3[nH]2)C[C@H]2C[C@@H]1C2(C)C (stereo partly drawn)	6.30
Cc1c(CN2CCN(C)CC2)cc(-c2ccc(Cl)cc2)n1-c1ccc(Cl)cc1	2.89

Attention now shifts to the item below.
pKd for CN(C)c1ccc2c(-c3ccc(C(=O)NCCCCCCn4cc(COc5ccc6[nH]c(C(=O)NC7CCCCCCC7)cc6c5)nn4)cc3C(=O)O)c3ccc(=[N+](C)C)cc-3oc2c1 is 4.44
